Test system: Escherichia coli
TEST METHOD NOTES: Antibacterial activity against multidrug-resistant Escherichia coli 50857972 producing imipenem-type carbapenemase-26 cultured in MHB medium assessed as reduction in bacterial growth incubated for 24 hrs by microdilution susceptibility test
Assay type: functional
DETAILS: Escherichia coli, 50857972, 24 h
What MIC was measured for each of the following?

## Input GET /values?readout=MIC&item= `NCCNCC(CN)(Cc1cc(Br)cc(Br)c1)Cc1cc(Br)cc(Br)c1`
## Output 8 µg/mL

## Input And for `N=C(N)NCCNC(=O)C(CNC(=N)N)(Cc1cc(Br)cc(Br)c1)Cc1cc(Br)cc(Br)c1` ?
## Output 8 µg/mL

## Input // next record `NCCNC(=O)C(CN)(Cc1cc(Br)cc(Br)c1)Cc1cc(Br)cc(Br)c1`
## Output 8 µg/mL

## Input And then `NCCNC(=O)C(CN)(Cc1ccccc1C(F)(F)F)Cc1ccccc1C(F)(F)F` , what is it?
## Output > 32 µg/mL

## Input Also check `N#CC(Cc1cc(C(F)(F)F)cc(C(F)(F)F)c1)(Cc1cc(C(F)(F)F)cc(C(F)(F)F)c1)C(=O)NCCN`
## Output > 32 µg/mL

## Input Follow-up entry: `N=C(N)NCCNC(=O)C(CNC(=N)N)(Cc1cc(C(F)(F)F)cc(C(F)(F)F)c1)Cc1cc(C(F)(F)F)cc(C(F)(F)F)c1`
## Output 32 µg/mL

## Input Quick one: `NCCNC(=O)C(CN)(Cc1ccc(C(F)(F)F)cc1)Cc1ccc(C(F)(F)F)cc1`
## Output 32 µg/mL

## Input Again, but for `NCCNCC(CN)(Cc1ccc(F)c2ccccc12)Cc1ccc(F)c2ccccc12`
## Output 8 µg/mL

## Input Next compound up: `NCCNCC(CN)(Cc1ccccc1Br)Cc1ccccc1Br`
## Output 16 µg/mL

## Input Okay, and `NCCNCC(CN)(Cc1cc(C(F)(F)F)cc(C(F)(F)F)c1)Cc1cc(C(F)(F)F)cc(C(F)(F)F)c1` ?
## Output 8 µg/mL

## Input One more compound: `NCCNC(=O)C(CN)(Cc1ccc(F)c2ccccc12)Cc1ccc(F)c2ccccc12`
## Output 8 µg/mL

## Input Now the same for `N=C(N)NCCNC(=O)C(CNC(=N)N)(Cc1ccc(F)c2ccccc12)Cc1ccc(F)c2ccccc12`
## Output 32 µg/mL

## Input Field entry: `NCCNC(=O)C(CN)(Cc1cc(C(F)(F)F)cc(C(F)(F)F)c1)Cc1cc(C(F)(F)F)cc(C(F)(F)F)c1`
## Output 8 µg/mL
